The entries below are paired with their reported inhibition of M^pro enzymatic activity, first round of screening.
target: SARS‐CoV‐2 M^pro (Severe acute respiratory syndrome coronavirus 2, UniProt P0DTD1); test: SARS‐CoV‐2 main protease enzymatic assay (FRET inhibitor screening kit); type: biochemical
State the answer as a number, implicitly in %.

Cc1cncc(C(=O)N2C[C@H]3CC[C@@H](C2)N3C(c2cccc(F)c2)c2cn(CC(N)=O)nn2)c1 (some centres unmarked)
99
O=C(NCc1cccs1)C1CN(C(=O)c2cccnc2)CCN1c1ccc(Cl)c(Cl)c1 (centres unmarked) [GC‐14, reference compound]
98

Note to self: inhibition of M^pro enzymatic activity, first round of screening of O=C(c1cccnc1)N1C[C@H]2CC[C@@H](C1)N2C(c1cccc(F)c1)c1cn(CCN2C(=O)c3ccccc3C2=O)nn1 (some centres unmarked) with SARS‐CoV‐2 M^pro (Severe acute respiratory syndrome coronavirus 2, UniProt P0DTD1) was 89

Note to self: inhibition of M^pro enzymatic activity, first round of screening of CNC(=O)Cn1cc(C(c2cccc(F)c2)N2[C@@H]3CC[C@H]2CN(C(=O)c2cncc(C)c2)C3)nn1 (some centres unmarked) with SARS‐CoV‐2 M^pro (Severe acute respiratory syndrome coronavirus 2, UniProt P0DTD1) was 96

Query Cc1cncc(C(=O)N2C[C@H]3CC[C@@H](C2)N3C(c2cccc(F)c2)c2cn(CCN3C(=O)c4ccccc4C3=O)nn2)c1 (some centres unmarked) on SARS‐CoV‐2 M^pro (Severe acute respiratory syndrome coronavirus 2, UniProt P0DTD1); inhibition of M^pro enzymatic activity, first round of screening returned: 100

* * *

test: In vivo pharmacokinetic study in male ICR mice (compound alone); conditions: male, ICR, mouse, plasma, po, 10 mg/kg, PO 10 mg/kg, mean of mice 4#-6#; read-out: Cmax, Mean
valueType: Cmax (ng/mL)
# unit: ng/mL | format: bare number

Sample Cc1cncc(C(=O)N2C[C@H]3CC[C@@H](C2)N3[C@H](c2cccc(F)c2)c2cn(CCc3ccsc3)nn2)c1 [Compound C5N17B] ; Cmax observed: 40.6

* * *

target: UniProt:P0DTD1; test: SARS‐CoV‐2 main protease enzymatic assay (FRET inhibitor screening kit); assay type: biochemical
Under this convention, Criterion met denotes IC50 strictly below 1000 nM and Criterion not met denotes IC50 at or above 1000 nM.

// below: answered compounds
Cc1cncc(C(=O)N2C[C@H]3CC[C@@H](C2)N3C(c2cccc(F)c2)c2cn(Cc3cccc([N+](=O)[O-])c3)nn2)c1 (stereo partly shown)
Criterion not met
Cc1cncc(C(=O)N2C[C@H]3CC[C@@H](C2)N3C(c2cccc(F)c2)c2cn(CS(=O)(=O)c3ccccc3)nn2)c1 (stereo partly shown)
Criterion met
COC(=O)CCCn1cc(C(c2cccc(F)c2)N2[C@@H]3CC[C@H]2CN(C(=O)c2cncc(C)c2)C3)nn1 (stereo partly shown)
Criterion met

Query block: Criterion: IC50 strictly below 1000 nM. Is it met by Cc1cncc(C(=O)N2C[C@H]3CC[C@@H](C2)N3[C@@H](c2cccc(F)c2)c2cn(CCc3ccsc3)nn2)c1 [Compound C5N17A] ?
Result block: Criterion not met

Query block: Strictly below 1000 nM: is that where IC50 of Cc1cncc(C(=O)N2C[C@H]3CC[C@@H](C2)N3C(c2cccc(F)c2)c2cn(Cc3cccc(F)c3)nn2)c1 (stereo partly shown) sits?
Result block: Criterion not met

Query block: Please state whether IC50 is below 1000 nM for Cc1cncc(C(=O)N2C[C@H]3CC[C@@H](C2)N3C(c2cccc(F)c2)c2cn(CCN3C(=O)c4ccccc4C3=O)nn2)c1 (stereo partly shown)
Result block: Criterion met

Query block: I wonder whether O=C(c1cccnc1)N1C[C@H]2CC[C@@H](C1)N2C(c1cccc(F)c1)c1cn(CCc2ccsc2)nn1 (stereo partly shown) has IC50 below 1000 nM. Can you tell?
Result block: Criterion met

Query block: Decide: IC50 of CNC(=O)Cn1cc(C(c2cccc(F)c2)N2[C@@H]3CC[C@H]2CN(C(=O)c2cncc(C)c2)C3)nn1 (stereo partly shown) strictly below 1000 nM?
Result block: Criterion met

Query block: Consider Cc1cncc(C(=O)N2C[C@H]3CC[C@@H](C2)N3C(c2cccc(F)c2)c2cn(CCc3ccsc3)nn2)c1 (stereo partly shown) . Does its IC50 lie strictly below 1000 nM?
Result block: Criterion met

Query block: Quick check: does Cc1cncc(C(=O)N2C[C@H]3CC[C@@H](C2)N3C(c2cccc(F)c2)c2cn(Cc3ccc(S(C)(=O)=O)cc3)nn2)c1 (stereo partly shown) have IC50 under 1000 nM?
Result block: Criterion not met

Query block: Does this compound meet the criterion IC50 < 1000 nM? Cc1cncc(C(=O)N2C[C@H]3CC[C@@H](C2)N3C(c2cccc(F)c2)c2cn(Cc3ccc([N+](=O)[O-])cc3)nn2)c1 (stereo partly shown)
Result block: Criterion not met

Query block: Decide: IC50 of Cc1cncc(C(=O)N2C[C@H]3CC[C@@H](C2)N3C(c2cccc(F)c2)c2cn(CCc3ccccc3)nn2)c1 (stereo partly shown) strictly below 1000 nM?
Result block: Criterion met

Query block: # TODO verify IC50 < 1000 nM strictly for this compound: Cc1cncc(C(=O)N2C[C@H]3CC[C@@H](C2)N3C(c2cccc(F)c2)c2cn(CC(N)=O)nn2)c1 (stereo partly shown)
Result block: Criterion met
